tgt: [Pyruvate dehydrogenase (acetyl-transferring)] kinase isozyme 3, mitochondrial (Homo sapiens)
Sequence (Q15120 whole entry): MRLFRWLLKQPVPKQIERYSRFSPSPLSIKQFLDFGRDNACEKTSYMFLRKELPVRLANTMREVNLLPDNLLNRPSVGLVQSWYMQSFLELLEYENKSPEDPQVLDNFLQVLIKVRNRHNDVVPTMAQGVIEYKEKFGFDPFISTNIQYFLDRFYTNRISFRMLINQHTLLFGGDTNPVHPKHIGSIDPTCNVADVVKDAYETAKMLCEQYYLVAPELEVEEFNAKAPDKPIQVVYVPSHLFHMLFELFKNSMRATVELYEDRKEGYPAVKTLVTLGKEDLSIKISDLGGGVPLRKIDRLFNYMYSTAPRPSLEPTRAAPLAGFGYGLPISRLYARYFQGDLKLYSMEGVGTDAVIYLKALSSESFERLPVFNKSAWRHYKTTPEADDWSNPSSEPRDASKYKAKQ
methodDescription: Inhibition of PDHK3 (unknown origin)
measurementKind: pIC50
Give bare numbers, as −log10 of the molar value.

get_value(item= `C[C@@H]1C[C@H]2O[C@@H]2/C=C\C=C\C(=O)Cc2c(Cl)c(O)cc(O)c2C(=O)O1` , readout=pIC50) returns 3.64

* * *

tgt: Heat shock protein HSP90 (Homo sapiens, UniProt P07900+P08238)
methodDescription: Inhibition of geldanamycin-BODIPY binding to full-length HSP90 (unknown origin) by fluorescence polarization based competition assay
Format: protein assay
Please provide measured log10 of IC50 for the entries that follow.
// do not treat as linear: log10 of IC50, unit µM

Consider the following items and state reported log10 of IC50 for each.
1. COc1ccc(-c2c(/C=C/C(=O)N3CCN(c4ccccn4)CC3)noc2-c2cc(Cl)c(O)cc2O)cc1
2. COc1ccc(N2CCN(C(=O)/C=C/c3noc(-c4cc(Cl)c(O)cc4O)c3-c3ccc(O)cc3)CC2)cc1
3. COc1ccccc1N1CCN(C(=O)/C=C/c2noc(-c3cc(Cl)c(O)cc3O)c2-c2ccc(O)cc2)CC1
4. COc1cccc(N2CCN(C(=O)/C=C/c3noc(-c4cc(Cl)c(O)cc4O)c3-c3ccc(O)cc3)CC2)c1

-0.67
-0.24
-0.29
-0.18

Consider the following items and state reported log10 of IC50 for each.
1. COc1ccc(-c2c(C(=O)Nc3ccncc3)noc2-c2cc(Cl)c(O)cc2O)cc1
2. CCNC(=O)N1CCC(NC(=O)c2noc(-c3cc(Cl)c(O)cc3O)c2-c2ccc(OC)cc2)CC1
3. COc1ccc(-c2c(C(=O)NC3CCN(C(C)=O)CC3)noc2-c2cc(Cl)c(O)cc2O)cc1
4. COc1ccc(-c2c(/C=C/C(=O)N3CCN(c4ccc(OC)cc4)CC3)noc2-c2cc(Cl)c(O)cc2O)cc1

-0.81
-1.70
-1.60
-0.15
